Assay: Tigecycline plasma PK and % F after PO enteric-coated capsule in dogs
Type: in vivo, Beagle dogs
Settings: female, beagle, dog, plasma, po, 45 mg, Tigecycline Plasma Concentration, Time (min) 4.5; PO 45 mg enteric-coated capsule with 500 mg CA and 100 mg LLC, SC430; mean
Experimental: Adult beagle dogs weighing approximately 9 to 15 kg were used in the study. […] Room temperature was set to be maintained between approximately 20±5° C. Relative humidity was monitored but not controlled. […] The unknown concentration in dog plasma samples was determined by interpolation of the peak area ratios of analyte:internal standard versus the ratio of their nominal concentrations into the regression line obtained from calibration standards spiked in pooled dog plasma. […]
experimental_endpoint: concentration at […]
Remember to quote the unit after the number.

Need concentration at […] of CN(C)c1cc(NC(=O)CNC(C)(C)C)c(O)c2c1C[C@H]1C[C@H]3[C@H](N(C)C)C(O)=C(C(N)=O)C(=O)[C@@]3(O)C(O)=C1C2=O [Tigecycline] , thanks.
48.9 ng/mL

###

test: Tigecycline plasma PK after IV bolus in dogs; type: in vivo, Beagle dogs; settings: female, beagle, dog, plasma, intravenous, 1 mg, Tigecycline Plasma Concentration, 60 min; 1 mg IV in PBS (0.08 mg/kg), SC427; individual dogs
experimental_endpoint: concentration at 60 min

Need concentration at 60 min of CN(C)c1cc(NC(=O)CNC(C)(C)C)c(O)c2c1C[C@H]1C[C@H]3[C@H](N(C)C)C(O)=C(C(N)=O)C(=O)[C@@]3(O)C(O)=C1C2=O , thanks.
13.5 ng/mL

###

test: Tigecycline plasma PK after IV bolus in dogs; format: in vivo, Beagle dogs; details: female, beagle, dog, plasma, iv, 0.08 mg/kg, 1 mg IV in PBS (0.08 mg/kg), SC427; mean; read-out: Cmax
experimental_endpoint: Cmax (ng/mL)
Field format: number, assumed ng/mL, no unit text.

Need Cmax of CN(C)c1cc(NC(=O)CNC(C)(C)C)c(O)c2c1C[C@H]1C[C@H]3[C@H](N(C)C)C(O)=C(C(N)=O)C(=O)[C@@]3(O)C(O)=C1C2=O , thanks.
79.1

###

Assay: Tigecycline plasma PK and % F after intraduodenal (ID) injection in anesthetized rats
Type: in vivo, Sprague-Dawley Rats
Settings: female, Sprague-Dawley, rat, plasma, other: intraduodenal bolus injection, 4.8 mg/kg, pH 3.5, ID, 100 mM CA (pH 3.5), 26 mM LLC, 4.8 mg/kg (RA851); 20 min
Method: Animals weighed approximately 250 g at the time of testing. Rats were fasted overnight (with water available), prior to dosing. Intravenous (IV) doses were administered as a bolus injection into the left carotid […] at a dose volume of 1.6 mL/kg. […] Female rats were maintained in groups of 3 per polycarbonate (or equivalent) shoebox cage with fresh wood chip bedding at 20-22° C. under a 12 hour on/off light:dark cycle. […] Animal weights were determined post-anesthesia induction. […]
experimental_endpoint: concentration at 20 min (µg/mL)
Field format: number, assumed µg/mL, no unit text.

Need concentration at 20 min of CN(C)c1cc(NC(=O)CNC(C)(C)C)c(O)c2c1C[C@H]1C[C@H]3[C@H](N(C)C)C(O)=C(C(N)=O)C(=O)[C@@]3(O)C(O)=C1C2=O , thanks.
0.672

###

assay: Tigecycline plasma PK and % F after PO enteric-coated capsule in dogs; type: in vivo, Beagle dogs; details: female, beagle, dog, plasma, po, 15 mg, 15 mg Formulated (500 mg CA, 100 mg LLC) enteric coated capsule, Study 1 (SC424); mean (% CV); read-out: AUC(0-t)
experimental_endpoint: AUC(0-t) (ng·h/mL)
Field format: number, assumed ng·h/mL, no unit text.

Need AUC(0-t) of CN(C)c1cc(NC(=O)CNC(C)(C)C)c(O)c2c1C[C@H]1C[C@H]3[C@H](N(C)C)C(O)=C(C(N)=O)C(=O)[C@@]3(O)C(O)=C1C2=O [Tigecycline] , thanks.
133

###

Assay: Tigecycline plasma PK and % F after PO enteric-coated capsule in dogs
Assay type: in vivo, Beagle dogs
Conditions: female, beagle, dog, plasma, po, 15 mg, Tigecycline Plasma Concentration, 90 min; PO 15 mg enteric-coated capsule with 500 mg CA and 100 mg LLC, SC424; mean
Procedure: Adult beagle dogs weighing approximately 9 to 15 kg were used in the study. […] Room temperature was set to be maintained between approximately 20±5° C. Relative humidity was monitored but not controlled. […] The unknown concentration in dog plasma samples was determined by interpolation of the peak area ratios of analyte:internal standard versus the ratio of their nominal concentrations into the regression line obtained from calibration standards spiked in pooled dog plasma. […]
experimental_endpoint: concentration at 90 min (ng/mL)
Field format: number, assumed ng/mL, no unit text.

Need concentration at 90 min of CN(C)c1cc(NC(=O)CNC(C)(C)C)c(O)c2c1C[C@H]1C[C@H]3[C@H](N(C)C)C(O)=C(C(N)=O)C(=O)[C@@]3(O)C(O)=C1C2=O , thanks.
53.8

###

assay: Tigecycline plasma PK and % F after PO enteric-coated capsule in dogs; format: in vivo, Beagle dogs; details: female, beagle, dog, plasma, po, 30 mg, Tigecycline Plasma Concentration, 3.0 hr; PO 30 mg unformulated enteric-coated capsule, SC430; mean
experimental_endpoint: concentration at 3 hr (µg/mL)
Field format: number, assumed µg/mL, no unit text.

Need concentration at 3 hr of CN(C)c1cc(NC(=O)CNC(C)(C)C)c(O)c2c1C[C@H]1C[C@H]3[C@H](N(C)C)C(O)=C(C(N)=O)C(=O)[C@@]3(O)C(O)=C1C2=O , thanks.
0

###

assay: Tigecycline plasma PK and % F after intraduodenal (ID) injection in anesthetized rats; assay type: in vivo, Sprague-Dawley Rats; conditions: female, Sprague-Dawley, rat, plasma, 9 mg/kg, ID, PBS, 9.0 mg/kg (RA853), without animal RA853-6
experimental_endpoint: AUC(0-t) (ng·h/mL)
Field format: number, assumed ng·h/mL, no unit text.

Need AUC(0-t) of CN(C)c1cc(NC(=O)CNC(C)(C)C)c(O)c2c1C[C@H]1C[C@H]3[C@H](N(C)C)C(O)=C(C(N)=O)C(=O)[C@@]3(O)C(O)=C1C2=O , thanks.
262

###

Assay: Tigecycline plasma PK and % F after PO enteric-coated capsule in dogs
Assay type: in vivo, Beagle dogs
Conditions: female, beagle, dog, plasma, po, 15 mg, Tigecycline Plasma Concentration, 120 min; PO 15 mg enteric-coated capsule with 500 mg CA and 100 mg LLC, SC424; mean
Procedure: Adult beagle dogs weighing approximately 9 to 15 kg were used in the study. […] Room temperature was set to be maintained between approximately 20±5° C. Relative humidity was monitored but not controlled. […] The unknown concentration in dog plasma samples was determined by interpolation of the peak area ratios of analyte:internal standard versus the ratio of their nominal concentrations into the regression line obtained from calibration standards spiked in pooled dog plasma. […]
experimental_endpoint: concentration at 120 min (ng/mL)
Field format: number, assumed ng/mL, no unit text.

Need concentration at 120 min of CN(C)c1cc(NC(=O)CNC(C)(C)C)c(O)c2c1C[C@H]1C[C@H]3[C@H](N(C)C)C(O)=C(C(N)=O)C(=O)[C@@]3(O)C(O)=C1C2=O , thanks.
51.5

###

Assay: Tigecycline plasma PK and % F after intraduodenal (ID) injection in anesthetized rats
Assay type: in vivo, Sprague-Dawley Rats
Conditions: female, Sprague-Dawley, rat, plasma, other: intraduodenal bolus injection, 4.8 mg/kg, pH 3.5, ID, 400 mM CA (pH 3.5), 26 mM LLC, 4.8 mg/kg (RA851), parent Tigecycline peak only; 30 min
Protocol: Animals weighed approximately 250 g at the time of testing. Rats were fasted overnight (with water available), prior to dosing. Intravenous (IV) doses were administered as a bolus injection into the left carotid […] at a dose volume of 1.6 mL/kg. […] Female rats were maintained in groups of 3 per polycarbonate (or equivalent) shoebox cage with fresh wood chip bedding at 20-22° C. under a 12 hour on/off light:dark cycle. […] Animal weights were determined post-anesthesia induction. […]
experimental_endpoint: concentration at 30 min (ng/mL)
Field format: number, assumed ng/mL, no unit text.

Need concentration at 30 min of CN(C)c1cc(NC(=O)CNC(C)(C)C)c(O)c2c1C[C@H]1C[C@H]3[C@H](N(C)C)C(O)=C(C(N)=O)C(=O)[C@@]3(O)C(O)=C1C2=O , thanks.
618

###

experiment: Tigecycline plasma PK and % F after PO enteric-coated capsule in dogs; assay type: in vivo, Beagle dogs; conditions: female, beagle, dog, plasma, po, 30 mg, Tigecycline Plasma Concentration, 2.0 hr; PO 30 mg unformulated enteric-coated capsule, SC430; individual dogs
experimental_endpoint: concentration at 2 hr (ng/mL)
Field format: number, assumed ng/mL, no unit text.

Need concentration at 2 hr of CN(C)c1cc(NC(=O)CNC(C)(C)C)c(O)c2c1C[C@H]1C[C@H]3[C@H](N(C)C)C(O)=C(C(N)=O)C(=O)[C@@]3(O)C(O)=C1C2=O , thanks.
0

Entry source: patent US9526785B2
